Data credit: PubChem BioAssay

test: TOR pathway LAP4-GFP level changes – S. cerevisiae, multiplex flow cytometry, primary screen (AID 1873); details: S. cerevisiae LAP4-GFP expression, 3 h, at 10 µM, hits give high values
Inconclusive results are not listed. Square brackets hold non-standard residues; d marks the D form. Peptide text beside a SMILES is read from it. ξ: configuration not given here. ξV = CC(C)C(N)C(=O)O
Give True when the value for GFP response vs DMSO is at least 90%. Give False when it is less.

Take a look at these entries with their results.
| molecule | classification |
| --- | --- |
| Cc1cnc(N)c2c(=O)oc3ccccc3c12 | True |
| COCCCNc1nc2c([nH]1)c(=O)[nH]c(=O)n2C | True |
| CC1=C/C(=N\N=C2\NC(=O)C(CC(=O)Nc3ccccc3F)S2)CC(C)(C)C1 (stereo unspecified) | False |
| CC(C)CN1CCN(Cc2ccc(C#CC(C)(C)O)cc2)CC1CCO (stereo unspecified) | False |
| CCN(CC)c1ccc([C@H]2[C@@H]3CCCC[C@]3(O)CCN2CC(=O)NCc2ccco2)cc1 | True |

Entry CSCCC(NC(C)=O)C(=O)Oc1ccc2c3c(c(=O)oc2c1)CCCC3 (stereo unspecified) : is its GFP response vs DMSO no less than 90%?
True

Determine whether this molecule has GFP response vs DMSO no lower than 90%: NC(N)=NC(N)=NCCc1ccccc1
True

Kindly determine if GFP response vs DMSO recorded for CCOc1ccc2ccccc2c1CNc1nnnn1C is above or exactly 90%.
True

hey, is GFP response vs DMSO for this one >= 90%? COc1ccc(OC)c(S(=O)(=O)N2CCCc3ccccc32)c1
True

I'd appreciate it if you could say whether CC(=O)NC(C(=O)NCC(N)=O)C(C)C (stereo unspecified) (Ac-[ξV]-Gly-NH2) has GFP response vs DMSO at least equal to 90%.
True
